# Assay Text: Selectivity index, ratio of CC50 for human HEP2 cells to EC50 for Coxsackievirus B3 (strain Nancy) infected in human HEP cells
# Format: toxicity, cell-based
# Test Settings: HEp-2 cells, read-out: Ratio CC50/EC50
Readout Type: selectivity ratio
// keep it numeric: no unit symbol after the value

Looking for the measured selectivity ratio of C[C@H](CCn1cncn1)Cc1ccccc1 , can you help? 12.6

Same again, this time with CC[C@H](CCn1cncn1)c1ccc(OC)cc1 10.2

Also need c1ccc(C(CCn2cncn2)C2CCCCC2)cc1 (single isomer, unassigned; 40) , thanks. 4.6

Another molecule to check: Cc1ccc([C@H](CCn2cncn2)Cc2ccccc2)cc1 11.2

Another molecule to look at: CCCC[C@H](CCn1cncn1)c1ccccc1 4.8

Here is the next molecule: COc1ccc([C@H](CCn2cncn2)Cc2ccccc2)cc1 4.9

Now consider Cc1ccc(C[C@H](CCn2cncn2)c2ccccc2)cc1 . 5.2

Entry CCC[C@@H](CCn1cncn1)c1ccc(C)cc1 please 6.9

Next up: C[C@@H](CCn1cncn1)Cc1ccccc1 12.7

// next record c1ccc(C(CCn2cncn2)C2CCCCC2)cc1 (single isomer, unassigned; 39) 4.9

And c1ccc(C[C@H](CCn2cncn2)c2ccccc2)cc1 ? 4.1

And the next one, CC[C@@H](CCn1cncn1)c1ccc(OC)cc1 ? 14.5

====

# Assay Text: Cytotoxicity against human Hep2 cells assessed as reduction in cell viability after 3 days by MTT assay
# Assay type: cell-based
# Test Settings: HEp-2 cells
CC50 at 72 h vs 80 µg/mL: less than gives Condition met; not less than gives Condition not met.

Below 80 µg/mL on CC50 at 72 h? Entry CC[C@H](CCn1cncn1)c1ccc(C)cc1 Condition met

How about COc1ccc([C@H](CCn2cncn2)Cc2ccccc2)cc1 ? Condition met

Now give it for CCC[C@@H](CCn1cncn1)c1ccc(F)cc1 too. Condition met

Try CC[C@H](CCn1cncn1)c1ccc(F)cc1 next. Condition not met

Repeat with c1ccc(C[C@H](CCn2cncn2)c2ccccc2)cc1 Condition met

Subsequent entry: CCCC[C@H](CCn1cncn1)c1ccc(F)cc1 Condition met

Check Cc1ccc(C(CCn2cncn2)C2CCCCC2)cc1 (single isomer, unassigned) too. Condition met

Follow-up item: Clc1ccc([C@@H](CCn2cncn2)Cc2ccccc2)c(Cl)c1 Condition met

Quick one: C[C@@H](CCn1cncn1)Cc1ccccc1 Condition not met

Then CCC[C@H](CCn1cncn1)c1ccc(OC)cc1 ? Condition met

Query CCCC[C@@H](CCn1cncn1)c1ccc(Cl)cc1Cl next Condition met

Request: CCC[C@@H](CCn1cncn1)c1ccc(Cl)cc1 Condition met

Query CC[C@@H](CCn1cncn1)c1ccccc1 next Condition not met

Same thing, different compound: CCC[C@H](CCn1cncn1)c1ccc(F)cc1 Condition met

Do the same for Clc1ccc([C@H](CCn2cncn2)Cc2ccccc2)cc1 please Condition met

Can you check CC[C@@H](CCn1cncn1)c1ccc(Cl)cc1 next? Condition met

Next compound up: CC[C@@H](CCn1cncn1)c1ccc(C)cc1 Condition met

Another: CCCC[C@H](CCn1cncn1)c1ccccc1 Condition met

Now the compound C[C@H](CCn1cncn1)Cc1ccccc1 Condition not met

Param item: NC(=O)c1ncn([C@@H]2O[C@H](CO)[C@@H](O)[C@H]2O)n1 Condition not met

Cc1ccc([C@@H](CCn2cncn2)Cc2ccccc2)cc1 ? Condition not met

Then what about the compound Cc1ccc([C@H](CCn2cncn2)Cc2ccccc2)cc1 ? Condition not met

What do we get for CC[C@@H](CCn1cncn1)c1ccc(OC)cc1 ? Condition not met

Entry to check: CC[C@@H](CCn1cncn1)c1ccc(F)cc1 Condition not met

Record: CC[C@H](CCn1cncn1)c1ccc(Cl)cc1 Condition met

// repeat for CC[C@H](CCn1cncn1)c1ccccc1 and report Condition not met

====

# Assay Text: Selectivity index, ratio of CC50 for human RD cells to EC50 for EV71 Xiangyang-Hubei-09 infected in human RD cells
# Format: toxicity, cell-based
# Test Settings: read-out: Ratio CC50/EC50
Would you mind telling me the reported selectivity ratio of each entry?
Output spec: single numeric token, no unit.

Quick one: selectivity ratio of CCC[C@@H](CCn1cncn1)c1ccc(C)cc1 ? 6.8

Please answer likewise for C[C@@H](CCn1cncn1)Cc1ccccc1 12.6

Try the molecule CC[C@@H](CCn1cncn1)c1ccc(OC)cc1 21.7

And CCCC[C@H](CCn1cncn1)c1ccccc1 ? 4

Could you do the same for COc1ccc([C@H](CCn2cncn2)Cc2ccccc2)cc1 , please? 5.4

Ok, now C[C@H](CCn1cncn1)Cc1ccccc1 24.7

Record: CC[C@@H](CCn1cncn1)c1ccc(C)cc1 14.7

And CC[C@H](CCn1cncn1)c1ccc(OC)cc1 ? 7.4

Please give the result for CC[C@H](CCn1cncn1)c1ccc(C)cc1 too. 12.9

Would you kindly repeat that for CC[C@@H](CCn1cncn1)c1ccc(Cl)cc1 ? 10.2

Thanks! And NC(=O)c1ncn([C@@H]2O[C@H](CO)[C@@H](O)[C@H]2O)n1 [RIBAVIRIN] ? 15

Try this molecule too: Cc1ccc([C@H](CCn2cncn2)Cc2ccccc2)cc1 12.7

Field entry: Cc1ccc(C(CCn2cncn2)C2CCCCC2)cc1 (single isomer, unassigned) 5.5

Now consider c1ccc(C[C@H](CCn2cncn2)c2ccccc2)cc1 and answer again. 4.4

====

# Assay Text: Cytotoxicity against human RD cells assessed as reduction in cell viability after 3 days by MTT assay
# Type: cell-based
Readout Type: CC50 at 72 h (mg/L)
The reply should contain only the number, in mg/L.

Record request: CC50 at 72 h value, item CC[C@@H](CCn1cncn1)c1ccc(F)cc1 91.6

Then this compound: CCCC[C@H](CCn1cncn1)c1ccc(Cl)cc1 20.3

Now try NC(=O)c1ncn([C@@H]2O[C@H](CO)[C@@H](O)[C@H]2O)n1 . 486

Similarly, CCC[C@H](CCn1cncn1)c1ccccc1 ? 63.1

Follow-up item: CCC[C@H](CCn1cncn1)c1ccc(C)cc1 47.2

Now the same for Cc1ccc([C@H](CCn2cncn2)Cc2ccccc2)cc1 117

====

Record form. Attribute: CC50 at 72 h. Fill in for each entry.
# Assay Text: Cytotoxicity against human RD cells assessed as reduction in cell viability after 3 days by MTT assay
# Type: cell-based
Your answer should be a plain number; it is taken to be in µg/mL.

# get_value(readout='CC50 at 72 h', item= CCC[C@H](CCn1cncn1)c1ccc(F)cc1 ) 38.4

Entry to check: CCCC[C@@H](CCn1cncn1)c1ccc(Cl)cc1Cl 1.9

And then CCC[C@H](CCn1cncn1)c1ccc(OC)cc1 , what is it? 59.3

Could you do the same for c1ccc(C[C@H](CCn2cncn2)c2ccccc2)cc1 , please? 55.4

Same lookup for CCCC[C@@H](CCn1cncn1)c1ccc(Cl)cc1 , please. 18.7

Now consider CC[C@@H](CCn1cncn1)c1ccccc1 and answer again. 91.2

Entry to check: c1ccc(C(CCn2cncn2)C2CCCCC2)cc1 (single isomer, unassigned; 39) 11.8

And what about the molecule CC[C@@H](CCn1cncn1)c1ccc(C)cc1 ? 79.4

Could you do the same for Clc1ccc([C@H](CCn2cncn2)Cc2ccccc2)c(Cl)c1 , please? 1.9

Try this molecule next: CC[C@H](CCn1cncn1)c1ccccc1 99.8

Repeat with CC[C@@H](CCn1cncn1)c1ccc(OC)cc1 115

Then this molecule: c1ccc(C[C@@H](CCn2cncn2)c2ccccc2)cc1 56

Check CCCC[C@H](CCn1cncn1)c1ccc(C)cc1 too. 26.5

Proceed to CCCC[C@H](CCn1cncn1)c1ccccc1 48.3

Same lookup for CC[C@H](CCn1cncn1)c1ccc(OC)cc1 , please. 118

// same read-out, input: CC[C@H](CCn1cncn1)c1ccc(C)cc1 85.2

// same read-out, input: CCCC[C@@H](CCn1cncn1)c1ccccc1 47.5

Ok, now C[C@@H](CCn1cncn1)Cc1ccccc1 114

Note, next up: Cc1ccc(C[C@H](CCn2cncn2)c2ccccc2)cc1 37.8

Record: CCCC[C@@H](CCn1cncn1)c1ccc(F)cc1 34.1

Record: CCCC[C@@H](CCn1cncn1)c1ccc(C)cc1 56.5

Subsequent entry: CCC[C@@H](CCn1cncn1)c1ccc(Cl)cc1 40.8

# iterate: CCCC[C@H](CCn1cncn1)c1ccc(F)cc1 35.2

And CC[C@H](CCn1cncn1)c1ccc(F)cc1 ? 110

How about this molecule: COc1ccc([C@H](CCn2cncn2)Cc2ccccc2)cc1 66

Can you check CCC[C@@H](CCn1cncn1)c1ccc(F)cc1 next? 56.9

Try C[C@H](CCn1cncn1)Cc1ccccc1 next. 153

Try CC[C@@H](CCn1cncn1)c1ccc(Cl)cc1 next. 55.3
